This collection of values is drawn from patent US12134610B2.

Target: human somatostatin receptor subtype 2 (Homo sapiens)
Construct: expressed in transfected cells
Experiment: Functional cAMP assay for SSTR2 agonists (HTRF) in CHO-K1 cells
Type: cell-based
Settings: CHO-K1 cells stably expressing human SST2, 20 min; read-out: hSST2 cAMP Avg EC50
pEC50: −log10 of the molar value. Starred links: 1 amine or outer side, 2 acyl side, 3 side chain; linkers in the order of their positions; H or OH if unused. Non-standard residues stand in square brackets, D forms with d. Residues, ends and D or L forms follow the SMILES beside them. *: point of attachment. X1 = Cc1cc(F)cc(-c2cnc(NCCNC(=O)CCOCCC(=O)*)c(-c3nc4ccc(Cl)cc4[nH]3)c2N2CCC(N)CC2)c1; Dolaproine = CO[C@@H]([C@@H]1CCCN1)[C@@H](C)C(=O)O; Dil = CC[C@H](C)[C@H](NC)[C@@H](CC(=O)O)OC; PABC = O=C(OCc1ccc(N[*:1])cc1)[*:2]; X2 = C[C@@H](N*)[C@@H](O)c1ccccc1; Cit = NC(=O)NCCC[C@H](N)C(=O)O; NMeV = CN[C@H](C(=O)O)C(C)C
EXPERIMENTAL READOUT: pEC50

INSERT INTO results (molecule, experimental_readout, measured) VALUES
  ('Cc1cc(F)cc(-c2cnc(NCCNC(=O)CCOCCOCCOCCOCCOCCNC(=O)CN3CCN4CCN5CCN(CC3)CC(=O)[O][In]([O]C(=O)C4)[O]C(=O)C5)c(-c3nc4cc(Cl)ccc4[nH]3)c2N2CCC(N)CC2)c1 [Compound 15]', 'pEC50', 10.24),
  ('CCC(C)C(C(CC(=O)N1CCCC1C(OC)C(C)C(=O)NC(C)C(O)c1ccccc1)OC)N(C)C(=O)C(NC(=O)C(C(C)C)N(C)C(=O)OCc1ccc(NC(=O)[C@H](CCCNC(N)=O)NC(=O)[C@@H](NC(=O)CNC(=O)[C@H](Cc2ccccc2)NC(=O)CNC(=O)CNC(=O)CCOCCC(=O)NCCNc2ncc(-c3cc(C)cc(F)c3)c(N3CCC(N)CC3)c2-c2nc3ccc(Cl)cc3[nH]2)C(C)C)cc1)C(C)C (stereo in doubt) [Compound 30]', 'pEC50', 9.25),
  ('CC[C@H](C)[C@@H]([C@@H](CC(=O)N1CCC[C@H]1[C@H](OC)[C@@H](C)C(=O)N[C@H](C)[C@@H](O)c1ccccc1)OC)N(C)C(=O)[C@@H](NC(=O)[C@H](C(C)C)N(C)C(=O)OCc1ccc(NC(=O)[C@H](CCCNC(N)=O)NC(=O)[C@@H](NC(=O)CN2CCN(CC(=O)O)CCN(CC(=O)NCCOCCOCCOCCOCCC(=O)NCCNc3ncc(-c4cc(C)cc(F)c4)c(N4CCC(N)CC4)c3-c3nc4ccc(Cl)cc4[nH]3)CC2)C(C)C)cc1)C(C)C [Compound 39]', 'pEC50', 9.92),
  ('CC[C@H](C)[C@@H]([C@@H](CC(=O)N1CCC[C@H]1[C@H](OC)[C@@H](C)C(=O)N[C@H](C)[C@@H](O)c1ccccc1)OC)N(C)C(=O)[C@@H](NC(=O)[C@H](C(C)C)N(C)C(=O)OCc1ccc(NC(=O)[C@H](C)NC(=O)[C@@H](NC(=O)[C@H](CCC(=O)O)NC(=O)CCOCCC(=O)NCCNc2ncc(-c3cc(C)cc(F)c3)c(N3CCC(N)CC3)c2-c2nc3ccc(Cl)cc3[nH]2)C(C)C)c(O[C@@H]2O[C@H](C(=O)O)[C@@H](O)[C@H](O)[C@H]2O)c1)C(C)C [Compound 145]', 'pEC50', 9.60),
  ('CC[C@H](C)[C@@H]([C@@H](CC(=O)N1CCC[C@H]1[C@H](OC)[C@@H](C)C(=O)N[C@H](C)[C@@H](O)c1ccccc1)OC)N(C)C(=O)[C@@H](NC(=O)[C@H](C(C)C)N(C)C(=O)OCc1ccc(NC(=O)[C@H](CCCNC(N)=O)NC(=O)[C@@H](NC(=O)[C@@H](CCC(=O)O)NC(=O)[C@@H](CCC(=O)O)NC(=O)CCOCCC(=O)NCCNc2ncc(-c3cc(C)cc(F)c3)c(N3CCC(N)CC3)c2-c2nc3ccc(Cl)cc3[nH]2)C(C)C)cc1)C(C)C [Compound 103] (X1-[dE][dE]V[Cit][PABC][NMeV]V[Dil][Dolaproine]-X2)', 'pEC50', 9.59);

* * *

Molecular target: SST2 (Homo sapiens, UniProt P30874)
Construct: host or cells: PathHunter CHO-K1 SST2 cells
Sequence (P30874 whole entry): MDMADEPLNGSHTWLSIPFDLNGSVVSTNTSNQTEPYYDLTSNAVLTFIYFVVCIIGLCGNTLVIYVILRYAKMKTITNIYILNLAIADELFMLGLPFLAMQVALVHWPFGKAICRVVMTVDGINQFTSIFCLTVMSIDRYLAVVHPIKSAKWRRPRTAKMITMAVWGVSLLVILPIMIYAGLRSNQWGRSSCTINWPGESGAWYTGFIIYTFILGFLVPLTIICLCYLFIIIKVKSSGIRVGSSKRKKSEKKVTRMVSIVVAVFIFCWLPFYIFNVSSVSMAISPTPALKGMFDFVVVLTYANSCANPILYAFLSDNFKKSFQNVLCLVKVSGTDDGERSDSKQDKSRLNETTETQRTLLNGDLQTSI
Assay: PathHunter CHO-K1 SST2 internalization assay
Format: cell-based
Conditions: PathHunter CHO-K1 SST2, 90 min; read-out: Internalization EC50
Starred links: 1 amine or outer side, 2 acyl side, 3 side chain; linkers in the order of their positions; H or OH if unused. Non-standard residues stand in square brackets, D forms with d. Residues, ends and D or L forms follow the SMILES beside them. *: point of attachment. X1 = Cc1cc(F)cc(-c2cnc(NCCNC(=O)CCOCCC(=O)*)c(-c3nc4ccc(Cl)cc4[nH]3)c2N2CCC(N)CC2)c1; Dolaproine = CO[C@@H]([C@@H]1CCCN1)[C@@H](C)C(=O)O; Dil = CC[C@H](C)[C@H](NC)[C@@H](CC(=O)O)OC; PABC = O=C(OCc1ccc(N[*:1])cc1)[*:2]; X2 = C[C@@H](N*)[C@@H](O)c1ccccc1; Cit = NC(=O)NCCC[C@H](N)C(=O)O; NMeV = CN[C@H](C(=O)O)C(C)C
EXPERIMENTAL READOUT: EC50 (µM)

INSERT INTO measurements (compound, experimental_readout, measured) VALUES
  ('CC[C@H](C)[C@@H]([C@@H](CC(=O)N1CCC[C@H]1[C@H](OC)[C@@H](C)C(=O)N[C@H](C)[C@@H](O)c1ccccc1)OC)N(C)C(=O)[C@@H](NC(=O)[C@H](C(C)C)N(C)C(=O)OCc1ccc(NC(=O)[C@H](C)NC(=O)[C@@H](NC(=O)[C@H](CS(=O)(=O)O)NC(=O)CCOCCC(=O)NCCNc2ncc(-c3cc(C)cc(F)c3)c(N3CCC(N)CC3)c2-c2nc3ccc(Cl)cc3[nH]2)C(C)C)cc1C(=O)NCCN)C(C)C [Compound 117]', 'EC50', 0.0026),
  ('CC[C@H](C)[C@@H]([C@@H](CC(=O)N1CCC[C@H]1[C@H](OC)[C@@H](C)C(=O)N[C@H](C)[C@@H](O)c1ccccc1)OC)N(C)C(=O)[C@@H](NC(=O)[C@H](C(C)C)N(C)C(=O)OCc1ccc(NC(=O)[C@H](CCCNC(N)=O)NC(=O)[C@@H](NC(=O)[C@@H](CCC(=O)O)NC(=O)CCOCCC(=O)NCCNc2ncc(-c3cc(C)cc(F)c3)c(N3CCC(N)CC3)c2-c2nc3ccc(Cl)cc3[nH]2)C(C)C)cc1)C(C)C [Compound 102] (X1-[dE]V[Cit][PABC][NMeV]V[Dil][Dolaproine]-X2)', 'EC50', 0.019),
  ('CC[C@H](C)[C@@H]([C@@H](CC(=O)N1CCC[C@H]1[C@H](OC)[C@@H](C)C(=O)N[C@H](C)[C@@H](O)c1ccccc1)OC)N(C)C(=O)[C@@H](NC(=O)[C@H](C(C)C)N(C)C(=O)OCc1ccc(NC(=O)[C@H](CCCNC(N)=O)NC(=O)[C@@H](NC(=O)CCOCCNCCNc2ncc(-c3cc(C)cc(F)c3)c(N3CCC(N)CC3)c2-c2nc3ccc(Cl)cc3[nH]2)C(C)C)cc1)C(C)C [Compound 84]', 'EC50', 0.0097),
  ('CC[C@H](C)[C@@H]([C@@H](CC(=O)N1CCC[C@H]1[C@H](OC)[C@@H](C)C(=O)N[C@H](C)[C@@H](O)c1ccccc1)OC)N(C)C(=O)[C@@H](NC(=O)[C@H](C(C)C)N(C)C(=O)OCc1ccc(NC(=O)[C@H](CCCNC(N)=O)NC(=O)[C@@H](NC(=O)[C@H](CCC(=O)O)NC(=O)CCOCCC(=O)NCCNc2ncc(-c3cc(C)cc(F)c3)c(N3CCC(N)CC3)c2-c2nc3ccc(Cl)cc3[nH]2)C(C)C)c(O[C@@H]2O[C@H](C(=O)O)[C@@H](O)[C@H](O)[C@H]2O)c1)C(C)C [Compound 143]', 'EC50', 0.003),
  ('CC[C@H](C)[C@@H]([C@@H](CC(=O)N1CCC[C@H]1[C@H](OC)[C@@H](C)C(=O)N[C@H](C)[C@@H](O)c1ccccc1)OC)N(C)C(=O)[C@@H](NC(=O)[C@H](C(C)C)N(C)C(=O)OCc1ccc2cc1C(=O)NCCNC(=O)CC[C@H](NC(=O)CCOCCC(=O)NCCNc1ncc(-c3cc(C)cc(F)c3)c(N3CCC(N)CC3)c1-c1nc3ccc(Cl)cc3[nH]1)C(=O)N[C@@H](C(C)C)C(=O)N[C@@H](CCCNC(N)=O)C(=O)N2)C(C)C [Compound 59]', 'EC50', 0.0065),
  ('CC[C@H](C)[C@@H]([C@@H](CC(=O)N1CCC[C@H]1[C@H](OC)[C@@H](C)C(=O)N[C@H](C)[C@@H](O)c1ccccc1)OC)N(C)C(=O)[C@H](C)NC(=O)[C@H](C(C)C)N(C)C(=O)OCc1ccc(NC(=O)[C@@H](NC(=O)[C@@H](NC(=O)CCN(C)CCC(=O)NCCNc2ncc(-c3cc(C)cc(F)c3)c(N3CCC(N)CC3)c2-c2nc3ccc(Cl)cc3[nH]2)C(C)C)C(C)C)c(O[C@@H]2O[C@H](C(=O)O)[C@@H](O)[C@H](O)[C@H]2O)c1 [Compound 154]', 'EC50', 0.025),
  ('CCC(C)C(C(CC(=O)N1CCCC1C(OC)C(C)C(=O)NC(C)C(O)c1ccccc1)OC)N(C)C(=O)C(NC(=O)C(C(C)C)N(C)C(=O)OCc1ccc(NC(=O)[C@H](CCCNC(N)=O)NC(=O)[C@@H](NC(=O)CCOCCOCCC(=O)NCCNc2ncc(-c3cc(C)cc(F)c3)c(N3CCC(N)CC3)c2-c2nc3ccc(Cl)cc3[nH]2)C(C)C)cc1)C(C)C (stereo in doubt) [Compound 24]', 'EC50', 0.012),
  ('CC[C@H](C)[C@@H]([C@@H](CC(=O)N1CCC[C@H]1[C@H](OC)[C@@H](C)C(=O)N[C@H](C)[C@@H](O)c1ccccc1)OC)N(C)C(=O)[C@@H](NC(=O)[C@H](C(C)C)N(C)C(=O)OCc1ccc(NC(=O)[C@H](CCCNC(N)=O)NC(=O)[C@@H](NC(=O)[C@H](CCC(=O)O)NC(=O)CCOCCC(=O)NCCNc2ncc(-c3cc(C)cc(F)c3)c(N3CCC(N)CC3)c2-c2nc3ccc(Cl)cc3[nH]2)C(C)C)cc1)C(C)C [Compound 36] (X1-EV[Cit][PABC][NMeV]V[Dil][Dolaproine]-X2)', 'EC50', 0.0129),
  ('CCC(C)C(C(CC(=O)N1CCCC1C(OC)C(C)C(=O)NC(C)C(O)c1ccccc1)OC)N(C)C(=O)C(NC(=O)C(C(C)C)N(C)C(=O)OCc1ccc(NC(=O)[C@H](CCCNC(N)=O)NC(=O)[C@@H](NC(=O)CCOCCC(=O)NCCNc2ncc(-c3cc(C)cc(F)c3)c(N3CCC(N)CC3)c2-c2nc3ccc(Cl)cc3[nH]2)C(C)C)cc1)C(C)C (stereo in doubt) [Compound 26]', 'EC50', 0.0116);
